Biological target: recombinant human IL-6 (human, UniProt P05231 30-212)
Sequence (P05231 30-212 limits assumed): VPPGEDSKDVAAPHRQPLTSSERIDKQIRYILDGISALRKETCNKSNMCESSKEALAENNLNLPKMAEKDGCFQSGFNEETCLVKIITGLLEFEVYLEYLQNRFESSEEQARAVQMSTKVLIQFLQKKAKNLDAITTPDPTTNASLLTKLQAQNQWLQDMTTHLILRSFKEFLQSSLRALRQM
Test: SPR, IL-6 on CM5 chip, Fab lysate, 25 C
observation-type: koff (s⁻¹)
One number for each entry, in s⁻¹.

{"columns": ["binder", "unit-label", "val"],
 "data": [
  ["anti-IL-6 Fab, heavy chain W57F (Fab, V domains shown, see m39) VH: EVQLVESGGGLVQPGGSLRLSCAASGFTFSPFAMSWVRQAPGKGLEWVAKISPGGSFTYYSDTVTGRFTFSLDTSKSTAYLQMNSLRAEDTAVYYCARQLWGYYALDIWGQGTLVTVSS VL: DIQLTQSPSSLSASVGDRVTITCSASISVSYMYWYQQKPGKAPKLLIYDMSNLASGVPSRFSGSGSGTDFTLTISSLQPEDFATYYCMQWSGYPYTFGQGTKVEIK", "s⁻¹", 0.00615]
]}

Could you now consider this next binder?
Which koff is reported for this binder? anti-IL-6 Fab, heavy chain A97V (Fab, V domains shown) VH: EVQLVESGGGLVQPGGSLRLSCAASGFTFSPFAMSWVRQAPGKGLEWVAKISPGGSWTYYSDTVTGRFTFSLDTSKSTAYLQMNSLRAEDTAVYYCVRQLWGYYALDIWGQGTLVTVSS VL: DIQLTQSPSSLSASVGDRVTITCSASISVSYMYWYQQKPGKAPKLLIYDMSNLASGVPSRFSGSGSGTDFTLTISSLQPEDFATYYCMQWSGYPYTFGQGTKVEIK 0.00412
